experiment: Unbound fraction in Crj:CD(SD)IGS rat plasma at 0.125 mg/hr, iv administered as continuous infusion by ultrafiltration method in presence of 16 mg/hr/kg probenecid; format: ADME, organism-based; details: with probenecid 16 mg/hr/kg
measured quantity: fraction unbound

Task: Data request, read-out fraction unbound, for "N[14c]1[14cH][14cH][14c](OS(=O)(=O)O)[14cH][14c]1Cl"
Output: 0.078

* * *

assay: Terminal half life in Beagle dog at 0.5 mg/kg, iv administered as bolus dose by HPLC-based liquid scintillation counting analysis; type: ADME, organism-based, Canis lupus familiaris; set-up: dose 0.5 mg/kg, route intravenous; conditions: in vivo, read-out: beta t1/2 (converted)
measured quantity: half-life (days)
Answer format: numeric, days implied, no suffix.

Task: Data request, read-out half-life, for "N[14c]1[14cH][14cH][14c](OS(=O)(=O)O)[14cH][14c]1Cl"
Output: 5

* * *

assay: Half life in rat plasma at 5 mg/kg; type: ADME, organism-based; design: dose 5 mg/kg
measured quantity: half-life (h)
Answer format: numeric, h implied, no suffix.

Task: Data request, read-out half-life, for Cc1cc(Cl)ccc1OCC(=O)O [METAXON]
Output: 6

* * *

test: In vivo plasma protein binding in Beagle dog at 0.5 mg/kg, iv administered as bolus dose by ultrafiltration method; type: ADME, organism-based, Canis lupus familiaris; design: dose 0.5 mg/kg, route intravenous; conditions: read-out: PPB (converted)
measured quantity: fraction unbound
Respond with the number and no other words.

Task: Data request, read-out fraction unbound, for "N[14c]1[14cH][14cH][14c](OS(=O)(=O)O)[14cH][14c]1Cl"
Output: 0.08

* * *

assay: Drug recovery in Crj:CD(SD)IGS rat urine at 0.5 mg/kg, iv administered as bolus dose measured from 0 to 24 hrs by HPLC analysis; assay type: ADME, organism-based; design: dose 0.5 mg/kg, route intravenous; conditions: read-out: Drug recovery
measured quantity: dose excreted (%)
Answer format: numeric, % implied, no suffix.

Task: Data request, read-out dose excreted, for "N[14c]1[14cH][14cH][14c](OS(=O)(=O)O)[14cH][14c]1Cl"
Output: 76.9

* * *

experiment: In vivo plasma protein binding in Crj:CD(SD)IGS rat at 0.125 mg/hr, iv administered as continuous infusion by ultrafiltration method in presence of 62 mg/hr/kg probenecid; type: ADME, organism-based; details: with probenecid 62 mg/hr/kg, read-out: PPB (converted)
measured quantity: fraction unbound
Respond with the number and no other words.

Task: Data request, read-out fraction unbound, for "N[14c]1[14cH][14cH][14c](OS(=O)(=O)O)[14cH][14c]1Cl"
Output: 0.184

* * *

test: In vitro plasma protein binding in dog at 50 ug/ml by ultrafiltration method; format: ADME, cell-free, Canis lupus familiaris; settings: read-out: PPB (converted)
measured quantity: fraction unbound at 50 ug/ml
Respond with the number and no other words.

Task: Data request, read-out fraction unbound at 50 ug/ml, for "N[14c]1[14cH][14cH][14c](OS(=O)(=O)O)[14cH][14c]1Cl"
Output: 0.154

* * *

test: Elimination half life in iv dosed dog plasma; assay type: ADME, organism-based, Canis lupus familiaris; conditions: read-out: beta t1/2 (converted)
measured quantity: half-life (days)
Answer format: numeric, days implied, no suffix.

Task: Data request, read-out half-life, for "CCOC(=O)C1=CCCC[C@H]1S(=O)(=O)N[14c]1[14cH][14cH][14c](F)[14cH][14c]1Cl"
Output: 6.58

* * *

assay: Terminal half life in Crj:CD(SD)IGS rat at 0.5 mg/kg, iv administered as bolus dose by HPLC-based liquid scintillation counting analysis; type: ADME, organism-based; design: dose 0.5 mg/kg, route intravenous; details: in vivo, read-out: beta t1/2 (converted)
measured quantity: half-life (h)
Answer format: numeric, h implied, no suffix.

Task: Data request, read-out half-life, for "N[14c]1[14cH][14cH][14c](OS(=O)(=O)O)[14cH][14c]1Cl"
Output: 4.1

* * *

test: Renal clearance in Crj:CD(SD)IGS rat at 0.5 mg/kg, iv administered as bolus dose measured from 0 to 24 hrs by HPLC-based liquid scintillation counting analysis; format: ADME, organism-based, Kidney; parameters: dose 0.5 mg/kg, route intravenous; settings: in vivo
measured quantity: CL renal (mL/min/kg)
Answer format: numeric, mL/min/kg implied, no suffix.

Task: Data request, read-out CL renal, for "N[14c]1[14cH][14cH][14c](OS(=O)(=O)O)[14cH][14c]1Cl"
Output: 9.47

* * *

test: Ratio of drug level in kidney cortex to plasma in Beagle dog at 0.5 mg/kg, iv administered as bolus dose by HPLC-based liquid scintillation counting analysis; type: ADME, organism-based, Canis lupus familiaris; design: dose 0.5 mg/kg, route intravenous
measured quantity: Kp

Task: Data request, read-out Kp, for "N[14c]1[14cH][14cH][14c](OS(=O)(=O)O)[14cH][14c]1Cl"
Output: 0.1

* * *

assay: Half life in dog plasma at 5 mg/kg; assay type: ADME, organism-based, Canis lupus familiaris; set-up: dose 5 mg/kg
measured quantity: half-life (h)
Answer format: numeric, h implied, no suffix.

- Cc1cc(Cl)ccc1OCC(=O)O: 63

Next molecule, please.
Task: Data request, read-out half-life, for "O=C(O)COc1ccc(Cl)cc1Cl"
Output: 92
